Experiment: chemical genetic growth profiling, strain panel (AID 1159580);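 also: tested at 20 µM; growth read once vehicle control cultures reached saturation at 30 °C; 1 = growth at the plate median or of vehicle wells; lower values mean less growth of the strain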
Conditions: S. cerevisiae deletion strains, growth OD, locus YLR384C, strain iki3, stronger effect = lower value
Screen size: about 5,500 compounds; about 2,000 (36%) were called active. Another 18% or so got no clear call; they are omitted. The list shows a part of the results.
Some molecules, each annotated with its measured normalized growth.

{"molecule": "O=c1[nH]cnc2c1ncn2C1O[C@H](CO)[C@@H](O)[C@H]1O (some centres undefined)", "normalized growth": "0.969 (inactive)"}
{"molecule": "COc1cccc(OC)c1C(=O)N[C@@H]1C(=O)N2[C@@H]1SC(C)(C)[C@@H]2C(=O)O", "normalized growth": "0.991 (inactive)"}
{"molecule": "CN(C)CCc1c[nH]c2ccc(C[C@H]3COC(=O)N3)cc12", "normalized growth": "1 (inactive)"}
{"molecule": "COc1c2c(cc3c1OCO3)C13C=C[C@H](OC)CC1N(C2)CC3O (some centres undefined)", "normalized growth": "0.978 (inactive)"}

====

Experiment: chemical genetic growth profiling, strain panel (AID 1159580);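 also: tested at 20 µM; growth read once vehicle control cultures reached saturation at 30 °C; 1 = growth at the plate median or of vehicle wells; lower values mean less growth of the strain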
Details: S. cerevisiae deletion strains, growth OD, locus YNL322C, strain KRE1
Hit rate of the full screen: of about 5,500 compounds, about 2,000 (36%) were called active. Not shown: some 18% with an inconclusive outcome. Cut-off read from the data, not from the text of the source: active = normalized growth mostly below about 0.91 (no sharp cut-off); inconclusive = no clear call, values can overlap the other calls; inactive = mostly above about 0.92. The list shows a part of the results. Where a SMILES comes first, the peptide text is derived from it. Bridges are numbered along the chain shown (N, C = ends). [ ]: non-standard residue; d: D form. The star is where a group is joined. Octanoyl(6-Me) = CCC(C)CCCCC(=O)*; Orn = NCCC[CH](N)C(=O)O; Dab = NCC[CH](N)C(=O)O
Possible outcomes: active, inactive

{"molecule": "CCOc1ccc(NC(C)=O)cc1", "classification": "inactive"}
{"molecule": "COc1cc(/C=N\\NC(=S)NC2CC3CCC2C3)cc(OC)c1OC (stereo not drawn)", "classification": "inactive"}
{"molecule": "C=C(C)C1Cc2c(ccc3c2OC2COc4cc(OC)c(OC)cc4C2C3=O)O1 (stereo not drawn)", "classification": "inactive"}
{"molecule": "NS(=O)(=O)c1ccc(-n2ncc3ccccc3c2=O)cc1", "classification": "inactive"}
{"molecule": "CCC(C)CCCCC(=O)NC(CCN)C(=O)NC(C(=O)NC(CCN)C(=O)NC1CCNC(=O)C(C(C)O)NC(=O)C(CCN)NC(=O)C(CCN)NC(=O)C(CC(C)C)NC(=O)C(Cc2ccccc2)NC(=O)C(CCN)NC1=O)C(C)O (stereo not drawn) ({Octanoyl(6-Me)}-[Dab]T[Dab][Dab][Dab]FL[Dab][Dab]T; lactam 4-C; configuration not given here)", "classification": "inactive"}
{"molecule": "COc1cc(C=Nc2ccc(F)cc2)cc(OC)c1OC", "classification": "inactive"}
{"molecule": "CC(C)S(=O)(=O)c1csc(C(N)=O)c1Cl", "classification": "inactive"}
{"molecule": "CC(C)(C)c1ccc(-c2cc(N)c(C(N)=O)s2)cc1", "classification": "inactive"}
{"molecule": "CC(=O)NC(=O)/C(C#N)=C/N1CCN(Cc2ccccc2)CC1", "classification": "inactive"}
{"molecule": "CC(N)C(O)c1ccc(O)c(O)c1 (stereo not drawn)", "classification": "inactive"}
{"molecule": "COc1cc(OC)cc(N2C(=O)C=CC2=O)c1", "classification": "active"}
{"molecule": "CC(C)CC1NC(=O)C(CCCN)NC(=O)C(C(C)C)NC(=O)C2CCCN2C(=O)C(Cc2ccccc2)NC(=O)C(CC(C)C)NC(=O)C(CCCN)NC(=O)C(C(C)C)NC(=O)C2CCCN2C(=O)C(Cc2ccccc2)NC1=O (stereo not drawn) (cyclo(FPV[Orn]LFPV[Orn]L); configuration not given here)", "classification": "inactive"}
{"molecule": "C=C(C)[C@H]1Cc2c(ccc3c2O[C@@H]2COc4cc(OC)c(OC)cc4[C@@H]2C3=O)O1", "classification": "inactive"}
